assay: PG9 antibody small-molecule binding – biochemical, TR-FRET, confirmation (AID 651571); conditions: at 6.7 µM, stronger effect = higher value
Out of some 1,500 compounds screened, about 1,300 (87%) were called active. The set was probably picked from earlier hits. The list is a sample of the results.
measuredParameter: inhibition (%)

O=C1C(=O)N(CCN2CCOCC2)C(c2cccc(Cl)c2)/C1=C(/O)c1ccc2c(c1)OCO2 (stereo not given)
26.7
C=CCn1c(=NC(=O)c2cccs2)sc2cc(NC(C)=O)ccc21
9.74
COc1cccc(-c2ccc(C#N)c(SCC(=O)NCCc3ccc(Cl)cc3)n2)c1
7.22
N#Cc1ccccc1Sc1ccccc1C(=O)OCC(=O)NC1CCCCC1
27.3
C=CCn1c(=NC(=O)c2ccc(S(=O)(=O)N3CCCC3)cc2)sc2cc(NC(C)=O)ccc21
29.4
COC(=O)C1=C(C)N(Cc2ccccc2C(F)(F)F)C(=NCc2ccc(OC)cc2)NC1c1cccc(C(F)(F)F)c1 (stereo not given)
6.91
COc1ccc(CCNC(=O)CSc2nc(-c3ccc(OC)c(OC)c3)ccc2C#N)cc1
26
N#Cc1c(-c2cccs2)nc(SCC(=O)c2ccc(Br)cc2)[nH]c1=O
29.8
Cc1cccc(Nc2nc3c(S(=O)(=O)c4ccccc4)nnn3c3ccccc23)c1C
41.2
COc1ccc(-n2nnnc2-c2nc3ccccc3s2)cc1
30.8
Cc1ccc(-n2c(SCC(=O)NCCC3=CCCCC3)nc3n[nH]c(C)c3c2=N)cc1Cl
22.1
Cc1nc2cc(NC(=O)CSc3nc4c(C)cccc4cc3C#N)ccc2s1
46.4
CCn1c(SCC(=O)Nc2cccc(F)c2)nnc1-c1cc2cc(Br)ccc2o1
40.1
COc1ccc(CC(=O)Nc2ccc(-c3nnc(-c4ccccc4)o3)cc2)cc1
18.3
Cc1cc(Br)ccc1NC(=O)c1sc2ncn(CC(=O)N3CCN(c4ccccn4)CC3)c(=O)c2c1C
5.44
Cc1ccc(-c2cc(C(=O)NCc3cn(C)nc3C)c3cc(Br)ccc3n2)cc1
18.5
COc1ccc(-c2csc(NC(=O)c3ccc(N4C(=O)CCC4=O)cc3)n2)cc1OC
15.2
CCCOc1ccc(C2C(C(=O)c3ccc(C)o3)=C(O)C(=O)N2CCCn2ccnc2)cc1 (stereo not given)
53
CCOc1ccc(C(=O)COC(=O)c2ccc(-n3cnnn3)cc2)cc1
27.8
C=CCOc1cccc(C2C(C(=O)c3ccc(C)o3)=C(O)C(=O)N2CCCn2ccnc2)c1 (stereo not given)
19.4
